Where these numbers come from: patent US20220135687A1

- study target: T1, cynomolgus PD-L1 overexpressing stable cell line (cynomolgus, UniProt G7PSE7 19-290)
- T1 construct: also called cynomolgus PD-L1 overexpressing cell line
- T1 sequence (G7PSE7 entry or part of it limits assumed): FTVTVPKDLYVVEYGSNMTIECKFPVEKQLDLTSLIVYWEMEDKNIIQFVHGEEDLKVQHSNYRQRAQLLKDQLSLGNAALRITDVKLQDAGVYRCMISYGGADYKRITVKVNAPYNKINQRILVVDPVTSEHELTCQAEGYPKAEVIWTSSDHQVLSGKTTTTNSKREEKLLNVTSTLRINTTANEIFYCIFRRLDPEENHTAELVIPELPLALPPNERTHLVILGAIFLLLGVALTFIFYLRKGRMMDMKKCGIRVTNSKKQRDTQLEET
- method notes: FACS, cynomolgus PD-L1 cell line
pEC50: −log10 of the molar value.
measured quantity: pEC50

INSERT INTO assay_data (binder, experimental_value) VALUES
  ('29A8_chimeric (antibody, human IgG1, kappa, N297A, V domains shown, Human IgG1 with effector-less Fc mutations, human kappa; also called chimeric 29A8H8C7) VH: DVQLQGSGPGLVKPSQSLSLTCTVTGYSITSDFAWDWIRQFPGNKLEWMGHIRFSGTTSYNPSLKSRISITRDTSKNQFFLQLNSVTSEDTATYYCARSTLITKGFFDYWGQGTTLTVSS VL: DIVMTQSHKFMSTSVGGRVSITCKASQDVSPAVAWYQQKPGQSPKLLIYWASTRHTGVPDRFTGSGSGTDFTLTISSVQTEDLALYYCQQHYSTPWTFGGGTKLEIKR', 8.56),
  ('53C1_VH3-VL1.M1 (antibody, human IgG1, kappa, N297A, V domains shown, Humanized, hIgG1 effector-less Fc, kappa; see recheck on K24R in the .M1 light chain) VH: EVQLVQSGAEVKKPGASVKLSCKASGYIFTGYGITWVRQAPGQGLEWIGEIFPRRVNTYYSEKFKGRATLTADTSTSTAYMELRSLRSDDTAVYFCARDYDPYFALDYWGQGTTVTVSS VL: DIQMTQSPSSLSASVGDRVTITCRASQDVSTAVDWYQQKPGKAPKLLIYSASYRYTGVPDRFSGSGSGTDFTFTISSLQPEDIATYYCQQHYSIPFTFGQGTKLEIKR', 8.33),
  ('29A8_VH5-VL1.M1 (antibody, human IgG1, kappa, N297A, V domains shown, Humanized, hIgG1 effector-less Fc, kappa; see recheck on K24R in the .M1 light chain) VH: EVQLQESGPGLVKPSETLSLTCTVSGYSITSDFAWDWIRQPPGKGLEWIGHIRFSGTTSYNPSLKSRVTISRDTSKNQFSLKLSSVTAADTAVYYCARSTLITKGFFDYWGQGTLVTVSS VL: DIQMTQSPSSLSASVGDRVTITCRASQDVSPAVAWYQQKPGKAPKLLIYWASTRHTGVPSRFSGSGSGTDFTLTISSLQPEDFATYYCQQHYSTPWTFGQGTKVEIKR', 8.51),
  ('53C1_chimeric (antibody, human IgG1, kappa, N297A, V domains shown, Human IgG1 with effector-less Fc mutations, human kappa; also called chimeric 53C1F3D4) VH: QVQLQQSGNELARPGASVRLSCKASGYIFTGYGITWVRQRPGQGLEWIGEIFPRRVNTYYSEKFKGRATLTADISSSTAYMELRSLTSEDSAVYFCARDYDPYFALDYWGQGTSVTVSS VL: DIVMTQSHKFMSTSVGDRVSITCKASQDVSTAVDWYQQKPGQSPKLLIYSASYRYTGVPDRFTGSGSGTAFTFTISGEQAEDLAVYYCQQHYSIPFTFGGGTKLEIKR', 8.54);
